assay_system: human GLP-1 receptor (human, UniProt P43220 24-463)
procedure_summary: cell-based or functional assay
Positions of bridges follow the written chain, without caps; N, C: chain ends. Non-standard residues stand in square brackets, D forms with d. No end group written: not given here. *: point of attachment. Acetyl(2-(4-imidazolyl)) = O=C(Cc1c[nH]cn1)*; Aib = CC(C)(N)C(=O)O
# T = In vitro activity relative to native peptide (%), vs. GLP-1 (cAMP EC50) below 20% (exclusive); F = In vitro activity relative to native peptide (%), vs. GLP-1 (cAMP EC50) at/above 20%

stdin: Regarding Y[Aib]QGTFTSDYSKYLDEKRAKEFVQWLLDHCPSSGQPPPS (bridge 16-20) [trigonal agonist of SEQ ID NO: 96] , kindly confirm whether its In vitro activity relative to native peptide (%), vs. GLP-1 (cAMP EC50) is beneath 20%.
stdout: F

stdin: Regarding Y[Aib]QGTFTSDYSKYLDERACKDFVQWLLDHHPSSGQPPPS (bridge 16-20) [trigonal agonist of SEQ ID NO: 71] , kindly confirm whether its In vitro activity relative to native peptide (%), vs. GLP-1 (cAMP EC50) is beneath 20%.
stdout: F

stdin: Regarding {Acetyl(2-(4-imidazolyl))}-GEGTFTSDLSKYLDSRRQQLFVQWLKAGGPSSGAPPPSHG [trigonal agonist of SEQ ID NO: 11] , kindly confirm whether its In vitro activity relative to native peptide (%), vs. GLP-1 (cAMP EC50) is beneath 20%.
stdout: T

stdin: Regarding Y[Aib]QGTFTSDYSKALDEKAAKEFVQWLLDQHPSSGQPPPSC (bridge 16-20) [trigonal agonist of SEQ ID NO: 100] , kindly confirm whether its In vitro activity relative to native peptide (%), vs. GLP-1 (cAMP EC50) is beneath 20%.
stdout: F

stdin: Regarding Y[Aib]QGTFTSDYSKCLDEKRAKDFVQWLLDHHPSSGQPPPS (bridge 16-20) [trigonal agonist of SEQ ID NO: 70] , kindly confirm whether its In vitro activity relative to native peptide (%), vs. GLP-1 (cAMP EC50) is beneath 20%.
stdout: T

stdin: Regarding {Acetyl(2-(4-imidazolyl))}-GQGTFTSDYSIQLDEIAVRDFVEWLKNGGPSSGAPPPSHG [trigonal agonist of SEQ ID NO: 14] , kindly confirm whether its In vitro activity relative to native peptide (%), vs. GLP-1 (cAMP EC50) is beneath 20%.
stdout: F

stdin: Regarding H[Aib]QGTFTSDCSKYLDSRAAQDFVQWLLDGGPSSGAPPPS [trigonal agonist of SEQ ID NO: 26] , kindly confirm whether its In vitro activity relative to native peptide (%), vs. GLP-1 (cAMP EC50) is beneath 20%.
stdout: F

stdin: Regarding H[Aib]QGTFTSDVSSYLDGQAAKEFIAWLVKGC [trigonal agonist of SEQ ID NO: 1] , kindly confirm whether its In vitro activity relative to native peptide (%), vs. GLP-1 (cAMP EC50) is beneath 20%.
stdout: T

stdin: Regarding Y[Aib]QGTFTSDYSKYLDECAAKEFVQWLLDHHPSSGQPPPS (bridge 16-20) [trigonal agonist of SEQ ID NO: 64] , kindly confirm whether its In vitro activity relative to native peptide (%), vs. GLP-1 (cAMP EC50) is beneath 20%.
stdout: F

stdin: Regarding Y[Aib]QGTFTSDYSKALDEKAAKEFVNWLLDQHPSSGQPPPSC (bridge 16-20) [trigonal agonist of SEQ ID NO: 101] , kindly confirm whether its In vitro activity relative to native peptide (%), vs. GLP-1 (cAMP EC50) is beneath 20%.
stdout: F

stdin: Regarding H[Aib]QGTFTSDVSKYLDGQAAQEFVAWLLAGC [trigonal agonist of SEQ ID NO: 9] , kindly confirm whether its In vitro activity relative to native peptide (%), vs. GLP-1 (cAMP EC50) is beneath 20%.
stdout: F
